# Test system: SK-BR-3
# experiment: Cell activity test of camptothecin chiral derivatives (MTS)
# Type: cell-based
# particulars: Homo sapiens, SK-BR-3, 72 h
observed property: IC50 (nM)

                                        mol  unit_info  assay_value
0  CC[C@@]1(O)C(=O)OCc2c1cc1n(c2=O)Cc2c-1nc1cc(F)c(C)c3c1c2[C@H](NC(=O)CO)CC3         nM         1.78
